All values here come from PubChem BioAssay.

ASSAY_NAME: growth inhibitors of H69AR lung tumor, primary screen, human, duplicate replicates (AID 580);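 note: 100% = mean luminescence of untreated wells and 0% = no signal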
MEASUREMENT_CONTEXT: H69AR lung tumor cells viability, ATP luminescence, 72 h; at 10 µM; active compounds read low
Binary call on viability with cut-off 90%: strictly below means YES, and equality or higher means NO.

Illustrative cases are given below, each with its answer.
COc1ccc(CN(C(=O)c2cccs2)c2nccs2)cc1OC : NO
O=C(CCSc1nc(-c2ccco2)cc(C(F)(F)F)n1)Nc1ccc2c(c1)OCO2 : YES
O=c1[nH]c2c(s1)C(c1ccco1)C1C3CCC(C3)C1S2 (configuration not stated) : YES
Cc1onc(-c2c(Cl)cccc2Cl)c1C(N)=O : NO

Take the compound CC(C)C1N=C2c3ccccc3N=C(SCc3cc(=O)n4ccccc4n3)N2C1=O (configuration not stated) and say whether its viability is less than 90%.
YES

Also CCOC(=O)C(NC(=O)OC(C)C)(Nc1nccs1)C(F)(F)F (configuration not stated) , if possible.
NO

Entry O=C(O)c1cc(=O)cc(C(=O)O)[nH]1 please
NO

Thanks! And CCNC(=O)N(C(=O)NCC)n1c(C)nnc1C ?
NO

Now this one: FC(F)(F)c1nnc2ccc(NCn3nnc4ccccc43)nn12
NO

Next record, please: CC1Cc2ccccc2N1S(=O)(=O)c1cccc(C(=O)OCC(=O)NC2CCS(=O)(=O)C2)c1 (configuration not stated)
NO

Next up: COC(=O)CCN1CCC(C(N)=O)CC1
NO

Param item: COc1cccc(-c2nnc3sc(-c4ccc(C)cc4)nn23)c1
YES

Record: Cc1cc(=O)oc2ccc(OCC(=O)N3CCC(C)CC3)cc12
NO

Can you handle CCOC(=O)c1ccc(-c2c(C(=O)OCC)oc3cc(O)c(CC)cc3c2=O)o1 next?
YES

Next up: COC(=O)c1cc(-c2c(C)oc3cc(O)ccc3c2=O)c(C)o1
YES

Cool, now Cc1ncoc1C(=O)Nc1cccc(Cl)c1C
NO

Moving on to COCCn1c(-c2ccc(OC)c(OC)c2)nc2ccccc21
NO

Also need O=C(Nc1ccc2c(c1)OCO2)C1CCCN1C(=O)Nc1ccccc1F (configuration not stated) , thanks.
NO

Try [O-][n+]1c2c(nn1-c1ccccc1Cl)-c1nonc1CC2 next.
NO

Try the compound CC(C)(C)NC(=O)Cn1nnnc1-c1nonc1N
NO

Same thing, different compound: O=S(=O)(c1ccc2ccccc2c1)N(CC(O)CN1CCOCC1)c1ccccc1 (configuration not stated)
NO

One more compound: COc1ccc(-n2c(COc3cccc(C)c3)nnc2SCC(=O)NCc2ccco2)cc1
YES

----------
ASSAY_NAME: reversal of MRP1-mediated doxorubicin resistance, pilot screen, H69AR cells, doxorubicin co-treatment (AID 601)
MEASUREMENT_CONTEXT: H69AR cells + 2 uM doxorubicin, CellTiter-Glo, 72 h; at 10 µM; active compounds read high
The source made the active and inactive calls.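 How the source made its calls: active means viability loss from added drug above about 55%, and viability with drug at most 40%, in both replicates (limit read from the data, passing the limit was not always enough); inconclusive means both conditions met in only one replicate; inactive means neither replicate meets both conditions.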
PROPERTY_NAME: differential viability (reversal)

Recorded results for 5 compounds are shown here.
COc1cccc(Nc2cc(C)nc3ccccc23)c1 : -1.05% (inactive)
CCNC(=O)c1ccc(NS(=O)(=O)c2ccccc2)cc1 : -1.69% (inactive)
O=C(O)COc1ccc2occ(C(=O)c3ccccc3)c2c1 : 1.01% (inactive)
CCCCn1c(=O)[nH]c(=O)c2c1nc(-c1ccncc1)n2CCOC : 1.93% (inactive)
Cc1cccc(-c2c3c(=O)n(C)c(=O)n(C)c3cn2-c2ccc(O)cc2)c1 : -6.51% (inactive)

Which differential viability (reversal) is reported for this compound? CCOC(=O)c1ccc(CC2S/C(=C(\C#N)C(C)=O)NC2=O)cc1 (stereo unspecified)
-4.15% (inactive)
